From: patent US20230035659A1

tested on: TTR mRNA; assay: TTR mRNA knockdown (quantitative PCR) in primary human hepatocytes treated with LNPs; type: cell-based; details: PHH; LNP dose 300 ng mRNA cargo; gRNA:mRNA 1:2; 96 h; biological triplicates; vs untreated control
Strand notation (5' to 3'): a small letter for the sugar, then the base; units joined by * are phosphorothioate-linked, units joined directly phosphodiester-linked; [ ] holds rarer units or linkages, { } end groups; capitals alone tell only the bases. m = 2'-O-methyl; r = 2'-OH (RNA)
Would you mind telling me the reported Avg % Knockdown (TTR mRNA) of each entry?
Report only the number, with the unit % understood.

Request: Data request, read-out Avg % Knockdown (TTR mRNA), for G000489: TTR sgRNA modified sequence, Human, SEQ ID NO: 96; guide sequence of CR003344 (nucleic acid) guide: mU*mU*mU*rGrArCrCrArUrCrArGrArGrGrArCrArCrUrGrUrUrUrUrArGrAmGmCmUmAmGmAmAmAmUmAmGmCrArArGrUrUrArArArArUrArArGrGrCrUrArGrUrCrCrGrUrUrArUrCrAmAmCmUmUmGmAmAmAmAmAmGmUmGmGmCmAmCmCmGmAmGmUmCmGmGmUmGmCmU*mU*mU*mU
Result: 91.85

Request: G000483: TTR sgRNA modified sequence, Human, SEQ ID NO: 90; guide sequence of CR005298 (nucleic acid) guide: mU*mC*mC*rArCrUrCrArUrUrCrUrUrGrGrCrArGrGrArGrUrUrUrUrArGrAmGmCmUmAmGmAmAmAmUmAmGmCrArArGrUrUrArArArArUrArArGrGrCrUrArGrUrCrCrGrUrUrArUrCrAmAmCmUmUmGmAmAmAmAmAmGmUmGmGmCmAmCmCmGmAmGmUmCmGmGmUmGmCmU*mU*mU*mU
Result: 68.78

Request: G000481: TTR sgRNA modified sequence, Human, SEQ ID NO: 88; guide sequence of CR003345 (nucleic acid, sugars from the 5' end m3 r25 m12 r28 m32, backbone not given here; further chemistry not fully specified) guide: UCUAGAACUUUGACCAUCAGGUUUUAGAGCUAGAAAUAGCAAGUUAAAAUAAGGCUAGUCCGUUAUCAACUUGAAAAAGUGGCACCGAGUCGGUGCUUUU
Result: 91.39
